Documented folding stability dG unfold across a set of sequences
# test: folding stability dG unfold (combined trypsin and chymotrypsin); higher = more stable

{"sequence data": "SAGGSAGGSAGGEARDNGVPTIEIPIPPEFKKGMPAEQMVDQLAKQLPPGVKDIHIEPPPSAGGSAGGSAGG [r7_487_TrROS]", "folding stability dG unfold / kcal/mol": 0.376}
{"sequence data": "SAGGSAGGIRINPENGQIYFPLENGKAKSVPFKPGQEREIPNGWRITIKPDPPGPWEIEVKPLDSAGGSAGG [r6_296_TrROS]", "folding stability dG unfold / kcal/mol": -0.499}
{"sequence data": "SAGGSALYIPPGTEHTVLIKLKDDDRYYEAKVTRVYPTSIEVEVEDPLTGEKKRYTINATDIELGDSAGGSA [r15_381_TrMRF]", "folding stability dG unfold / kcal/mol": 2.18}
{"sequence data": "SAGGMLPGLRPLLLAVLVPAEEPLEPEQVRELAEELRRELEEKGYGFAFRAIELEDFQLIIVDVVDPFSAGG [r13_442_TrMRF]", "folding stability dG unfold / kcal/mol": 3.11}
{"sequence data": "SAATLPPGTKVLTLTVTVRVPPGVSVEDLAAALAAELRRRLGPGAKITVTVTYDPETDTLTVTVTVVLPPSA [r9_657_TrROS_Hall]", "folding stability dG unfold / kcal/mol": 4.38}
{"sequence data": "SAGGSAPLPAREFADEIMKKSPGPVEITVVFKEPDEYYVAKITMNPNNGKPQIKVERIPPEDLKKLSAGGSA [r15_156_TrROS]", "folding stability dG unfold / kcal/mol": 0.467}
{"sequence data": "SAGGIRIRFWVPSPEEAREMAETIAKWLMEEHPGAKIKIEPKKVEPNPDNGYYRVEVPIKIVLPGQPISAGG [r13_585_TrROS]", "folding stability dG unfold / kcal/mol": 1.7}

====

# Lookup of reported folding stability dG unfold keyed by entry
# test: folding stability dG unfold (combined trypsin and chymotrypsin); higher = more stable
readout kind: folding stability dG unfold (kcal/mol)

{"sequence data": "SAGMSTTTTAEIKAAVEAAAGEGLNVAPPTVTATDGTPISDDTVIEPGAPVPVTVDVPIDPVPPPELRSAGG [r19_278_JUSTAS]", "output unit": "kcal/mol", "reported measurement": -0.0815}
{"sequence data": "SAGGSAGGSFRIKEIEYKPPKGMIEVEIEFPNGRPIKIHINPDEGWDPIYFGGKPIFPIRIEPSAGGSAGGS [r12_789_TrROS]", "output unit": "kcal/mol", "reported measurement": 0.534}
{"sequence data": "SAGGSAGGGMPPVVTTEISVEEVRPDERDENGNRYFLVTTTLTFPDSTVTTERWLEEEELEELLSAGGSAGG [r6_724_JUSTAS]", "output unit": "kcal/mol", "reported measurement": 1.09}
{"sequence data": "SAGGSAMLKVTERTVEVEVFDEEGNPIGWRERKIVVEDPLSPEPRPPPPPVDPVLAAETLGADVLESAGGSA [r15_572_JUSTAS]", "output unit": "kcal/mol", "reported measurement": 0.393}

====

# test: folding stability dG unfold from chymotrypsin proteolysis; higher = more stable
readout kind: folding stability dG unfold (kcal/mol)

{"sequence data": "SAGGSAGGSAKTVVINIKDLKLSKDGKLTVEEIKKRIKELLKKKGIKKVTVKTVEELLKALKSAGGSAGGSA [r18_72_TrROS_Hall]", "output unit": "kcal/mol", "reported measurement": 1.41}
{"sequence data": "SAGGSAGGSPKPIPIKIDEVWPNPDNGKDYIVKIEFPDGKKHTFTSPEDIRKLPGFDVEVYELSAGGSAGGS [r20_192_TrROS]", "output unit": "kcal/mol", "reported measurement": 0.783}
{"sequence data": "SAGGATIELEAEEHPETKKITIYVKSENPILTIEKIAKELKEKEDDIELTLVNEDGVPYTIKLEDLISAGGS [r8_236_TrMRF]", "output unit": "kcal/mol", "reported measurement": 0.38}
